# Measurement protocol: PAMPA, permeability assay across an artificial membrane
# Cond: increase: difference between percent diffusion of macrocycle vs linear counterpart
Endpoint: Δ % diffusion

CCCCC[C@@H]1OC(=O)[C@@H](C)N(C)C(=O)[C@H](CCCCC)OC(=O)[C@@H](C)N(C)C(=O)[C@H](CCCCC)OC(=O)[C@@H](C)N(C)C(=O)[C@H](CCCCC)OC(=O)[C@@H](C)N(C)C(=O)[C@H](CCCCC)OC(=O)[C@@H](C)N(C)C(=O)[C@H](CCCCC)OC(=O)[C@@H](C)N(C)C1=O
↑2%
CCCCC[C@H](OC(=O)[C@@H](C)N(C)C(=O)[C@H](CCCCC)OC(=O)[C@@H](C)N(C)C(=O)[C@H](CCCCC)OC(=O)[C@@H](C)N(C)C(=O)[C@H](CCCCC)OC(=O)[C@@H](C)N(C)C(=O)[C@H](CCCCC)OC(=O)[C@@H](C)N(C)C(=O)[C@H](CCCCC)OC(=O)[C@@H](C)N(C)C(=O)OC(C)(C)C)C(=O)OCc1ccccc1
↑2%

---

Listing of recorded Papp by entry.
# System: PAMPA
# Cond: Papp (x 10^-6 cm/s) / [row 4]; UV detection
Non-standard residues stand in square brackets, D forms with d. Residues, ends and D or L forms follow the SMILES beside them. *: point of attachment. Ahp(2) = CCCCC[C@H](N)C(=O)O; dNMeA = CN[C@H](C)C(=O)O; Boc = CC(C)(C)OC(=O)*; OBn = c1ccc(CO*)cc1
// units = ×10⁻⁶ cm/s; emit number, no label

CCCCC[C@H](OC(=O)[C@@H](C)N(C)C(=O)[C@H](CCCCC)OC(=O)[C@@H](C)N(C)C(=O)[C@H](CCCCC)OC(=O)[C@@H](C)N(C)C(=O)[C@H](CCCCC)OC(=O)[C@@H](C)N(C)C(=O)OC(C)(C)C)C(=O)OCc1ccccc1 [Compound L1.4]
2.03

Let's switch to this molecule now.
Fill in reported Papp for this entry: CCCCC[C@H](NC(=O)[C@@H](C)N(C)C(=O)[C@H](CCCCC)NC(=O)[C@@H](C)N(C)C(=O)[C@H](CCCCC)NC(=O)[C@@H](C)N(C)C(=O)[C@H](CCCCC)NC(=O)[C@@H](C)N(C)C(=O)OC(C)(C)C)C(=O)OCc1ccccc1 [Compound L2.5] (Boc-[dNMeA][Ahp(2)][dNMeA][Ahp(2)][dNMeA][Ahp(2)][dNMeA][Ahp(2)]-OBn)
2.43

---

# System: PAMPA
# Cond: Papp (x 10^-6 cm/s) – UV Detection / [row 5]; UV Detection
Listing of recorded Papp by entry.
// units = ×10⁻⁶ cm/s; emit number, no label

Look over these answered cases.
CCCCC[C@@H]1OC(=O)[C@@H](C)N(C)C(=O)[C@H](CCCCC)OC(=O)[C@@H](C)N(C)C(=O)[C@H](CCCCC)OC(=O)[C@@H](C)N(C)C(=O)[C@H](CCCCC)OC(=O)[C@@H](C)N(C)C(=O)[C@H](CCCCC)OC(=O)[C@@H](C)N(C)C1=O
3.14
CCCCC[C@@H]1OC(=O)[C@@H](C)N(C)C(=O)[C@H](CCCCC)OC(=O)[C@@H](C)N(C)C(=O)[C@H](CCCCC)OC(=O)[C@@H](C)N(C)C(=O)[C@H](CCCCC)OC(=O)[C@@H](C)N(C)C1=O [Compound C1.4, ent-verticilide]
6.83
CCCCC[C@@H]1OC(=O)[C@@H](C)N(C)C(=O)[C@H](CCCCC)OC(=O)[C@@H](C)N(C)C(=O)[C@H](CCCCC)OC(=O)[C@@H](C)N(C)C1=O [Compound C1.3, ent-verticilide B1]
3.75

Let's switch to this compound now.
Send back PAMPA Papp of CCCCC[C@@H]1OC(=O)[C@@H](C)N(C)C1=O only.
19
